System: HepG2 hepatoma cells
test protocol: Anti-tumor activity in vitro, MTT method, HepG2
Format: cell-based, human
measurement setup: HepG2, 72 h, MTT; read-out: IC50 HepG2 72 h
pIC50: −log10 of the molar value.
readout type: pIC50

Consider the reported pIC50 for these compounds:
| compound | pIC50 |
| --- | --- |
| COc1ccc(-c2oc3c(CC=C(C)C)c(O)cc(O)c3c(=O)c2OC(=O)CCC(=O)OCCCCOCc2cn(CCOC3OC(CO)C(O)C(O)C3O)nn2)cc1 (stereo not drawn) | < 4.00 |
| COc1ccc(-c2oc3c(CC=C(C)C)c(O)cc(O)c3c(=O)c2OC(=O)CCC(=O)OCc2cn(CCOC3OC(CO)C(O)C(O)C3O)nn2)cc1 (stereo not drawn) | 5.25 |

pIC50 value, target or system HepG2 hepatoma cells, for COc1ccc(-c2oc3c(CC=C(C)C)c(O)cc(O)c3c(=O)c2OC(=O)CCC(=O)OCCOCc2cn(CCOC3OC(CO)C(O)C(O)C3O)nn2)cc1 (stereo not drawn) : < 4.00

----------
test protocol: Determination of solubility (HPLC)
Assay type: physicochemical
measurement setup: 37 °C, aqueous with cosolvent or surfactant or cyclodextrin, thermodynamic from solid
readout type: solubility (µg/mL)
Give a bare numeral; the unit µg/mL is implied.

Some solved cases for reference:
| smiles str | solubility / µg/mL |
| --- | --- |
| COc1ccc(-c2oc3c(CC=C(C)C)c(O)cc(O)c3c(=O)c2OC(=O)CCC(=O)OCCN(CCOCc2cn(CCOCCO[C@H]3O[C@@H](CO)[C@H](O)[C@@H](O)[C@@H]3O)nn2)c2ccccc2)cc1 | 23.4 |
| COc1ccc(-c2oc3c(CC=C(C)C)c(O)cc(O)c3c(=O)c2OC(=O)CCC(=O)OCc2cn([C@H]3O[C@@H](CO)[C@H](O)[C@@H](O)[C@@H]3O)nn2)cc1 | 12.1 |
| COc1ccc(-c2oc3c(CC=C(C)C)c(O)cc(O)c3c(=O)c2OC(=O)CCC(=O)OCCCOCc2cn(CCO[C@H]3O[C@@H](CO)[C@H](O)[C@@H](O)[C@@H]3O)nn2)cc1 | 16.8 |
| COc1ccc(-c2oc3c(CC=C(C)C)c(O)cc(O)c3c(=O)c2OC(=O)CCC(=O)OCc2cn(CCOCCO[C@H]3O[C@@H](CO)[C@H](O)[C@@H](O)[C@@H]3O)nn2)cc1 | 11.2 |

The compound identified as COc1ccc(-c2oc3c(CC=C(C)C)c(O)cc(O)c3c(=O)c2OC(=O)CCC(=O)OCCOCCOCCOCCOCc2cn([C@H]3O[C@@H](CO)[C@H](O)[C@@H](O)[C@@H]3O)nn2)cc1 registered its solubility at 4.64

----------
System: HepG2 hepatoma cells
test protocol: Anti-tumor activity in vitro, MTT method, HepG2
Type: cell-based, human
measurement setup: HepG2, 72 h, MTT; read-out: IC50 HepG2 72 h
# IC50 listing for each entry below

Look over these answered cases.
| molecule | readout type | test result |
| --- | --- | --- |
| COc1ccc(-c2oc3c(CC=C(C)C)c(O)cc(O)c3c(=O)c2OC(=O)CCC(=O)OCCCCOCc2cn(CCOCCOC3OC(CO)C(O)C(O)C3O)nn2)cc1 (centres unmarked) | IC50 | > 100 µM |
| COc1ccc(-c2oc3c(CC=C(C)C)c(O)cc(O)c3c(=O)c2OC(=O)CCC(=O)OCCCOCc2cn(CCOCCOC3OC(CO)C(O)C(O)C3O)nn2)cc1 (centres unmarked) | IC50 | > 100 µM |
| COc1ccc(-c2oc3c(CC=C(C)C)c(O)cc(O)c3c(=O)c2OC(=O)CCC(=O)OCCCCOCc2cn(C3OC(CO)C(O)C(O)C3O)nn2)cc1 (centres unmarked) | IC50 | 7.03 µM |
| COc1ccc(-c2oc3c(CC=C(C)C)c(O)cc(O)c3c(=O)c2OC(=O)CCC(=O)OCCOCc2cn(CCOCCOC3OC(CO)C(O)C(O)C3O)nn2)cc1 (centres unmarked) | IC50 | 36.8 µM |

With those in mind, consider the next molecule.
For COc1ccc(-c2oc3c(CC=C(C)C)c(O)cc(O)c3c(=O)c2OC(=O)CCC(=O)OCCOCCOCCOCc2cn(C3OC(CO)C(O)C(O)C3O)nn2)cc1 (centres unmarked) the molecule record lists IC50 as 7.91 µM

Source: patent US20240067672A1
